# ASSAY: Tanguay_ZF_120hpf_AXIS_legacy: (Legacy) Oregon State University Tanguay Lab 120 Hour Post-fertilization zebrafish Assay for Body Axis Malformation (AID 2283635)
Results filed as inconclusive are left out. Active and inactive are the calls of the source. Rule for the calls: active = hit-call score of the fitted dose curve at least 0.9, where 1 is the maximum; inconclusive = response in the unintended direction; inactive = score below 0.9.
RECORDED_ENDPOINT: outcome

In [3]: df
Out[3]:
                               record_smiles  recorded_endpoint  measurement
 0                                OCc1ccccc1            outcome     inactive
 1                    O=C(O)c1cccc(C(=O)O)c1            outcome     inactive
 2                               CCCc1ccccc1            outcome     inactive
 3  O=C(NO)C1(NS(=O)(=O)c2ccc(Oc3ccc(F)cc3)cc2)CCOCC1            outcome     inactive
 4                            c1ccc2ncccc2c1            outcome     inactive
 5             O=C(O)[C@H](O)[C@@H](O)C(=O)O            outcome     inactive
 6  CCCCCCOC(=O)CC(CC(=O)OCCCCCC)(OC(=O)CCC)C(=O)OCCCCCC            outcome     inactive
 7                              COS(C)(=O)=O            outcome     inactive
 8  Cc1ncc([C@@H](CCCCCCc2ccc3c(n2)NCCC3)CC(=O)O)cn1            outcome     inactive
 9               CCCCCCCCCCCCCCCCOS(=O)(=O)O            outcome     inactive
10  CCCOc1ccc(S(=O)(=O)N2CCN(CC)CC2)cc1-c1nc2c(CC)n(Cc3ccccn3)nc2c(=O)[nH]1            outcome     inactive
11                           CCc1cccc(CC)c1N            outcome     inactive
12     CCn1nc(C)c2c1C(=O)NCC(c1ccc(O)cc1)=N2            outcome     inactive
